Give solubility at 2 h for every item shown.
# experiment description: Kinetic solubility assay in PBS pH 7.4
# Format: physicochemical
# condition parameters: aqueous buffer, kinetic from dmso stock; PBS pH 7.4, 200 µM, 1% DMSO, 2 hours at 25°C
Express it in µg/mL; write the number only.

Quickly give me recorded solubility at 2 h for "O=C1NC(=O)C(=Cc2ccc(-c3ccccc3F)[nH]2)C(=O)N1"
1.6

Give the measured solubility at 2 h for "O=C1NC(=O)C(=Cc2ccc(N3CCOCC3)cc2[N+](=O)[O-])C(=O)N1"
53.4

Give solubility at 2 h for "O=C1NC(=O)C(=C/C=C/c2ccccc2)C(=O)N1"
10

Using the record for "O=C1NC(=O)C(=Cc2ccc(O)c([N+](=O)[O-])c2)C(=O)N1" , state its measured solubility at 2 h.
52.7

Please look at this compound and report its solubility at 2 h: "COc1cc(C=C2C(=O)NC(=O)NC2=O)ccc1O"
51

* * *

Provide the reported remaining at 1 h, 1 µM of each item.
# experiment description: in vitro
# condition parameters: mouse, liver microsomes, pH 7.4, % Remaining, T=60 min, n=1, mouse liver microsomes, 1 µM, 60 min, n=1
Supply the numeric figure in %, leaving out any unit text.

Provide remaining at 1 h, 1 µM value for the following compound: "O=C(O)Cc1ccccc1Nc1c(Cl)cccc1Cl"
52.3

Please report remaining at 1 h, 1 µM for the following compound: CC(C)NCC(O)COc1cccc2ccccc12 (centres unmarked)
16

* * *

# experiment description: Parallel artificial membrane permeability assay (PAMPA)
# condition parameters: average of n=2; 10µM, PBS pH 7.4/7.4, 6h at room temperature
outcome measure: Avg Pe

Given "O=C1NC(=O)C(=Cc2ccc(N3CCOCC3)cc2[N+](=O)[O-])C(=O)N1" , respond with its Avg Pe.
0.000444 ×10⁻⁶ cm/s

State its Avg Pe: NC(=O)N1c2ccccc2C=Cc2ccccc21 [Carbamazepine]
7.83 ×10⁻⁶ cm/s

Supply Avg Pe value. Item: NS(=O)(=O)c1cc(C(=O)O)c(NCc2ccco2)cc1Cl [Furosemide]
4.97e-05 ×10⁻⁶ cm/s

// fetch Avg Pe given entry CC(C)NCC(O)COc1cccc2ccccc12 (stereo not shown)
6.15 ×10⁻⁶ cm/s

* * *

Consider the following compounds; for each one, report its remaining at 5 min, 1 μM.
# experiment description: in vitro
# condition parameters: male, CD1, mouse, liver microsomes, pH 7.4, % Remaining, T=5 min, n=2, mouse liver microsomes, 1 µM, 5 min, n=2
Write the quantity with the unit trailing the number.

State its remaining at 5 min, 1 μM for this compound: "O=C(O)Cc1ccccc1Nc1c(Cl)cccc1Cl"
89.2%

Consider the compound CC(C)NCC(O)COc1cccc2ccccc12 (centres unmarked) and give its recorded remaining at 5 min, 1 μM.
52.5%

* * *

# condition parameters: mouse liver microsomes, 20 min, replicate 1 (left block), raw LC-MS area
outcome measure: Raw data: analyte peak area, T=20

Give the value of Raw data: analyte peak area, T=20 reported for the following: CC(C)NCC(O)COc1cccc2ccccc12 (stereo not shown)
29264

Tell us which Raw data: analyte peak area, T=20 value is on record for "O=C1NC(=O)C(=C/C=C/c2ccccc2)C(=O)N1"
0

Provide one value: measured Raw data: analyte peak area, T=20 of "O=C1NC(=O)C(=Cc2ccc(N3CCOCC3)cc2[N+](=O)[O-])C(=O)N1"
17411

Report Raw data: analyte peak area, T=20, nothing else, for this compound: "O=C(O)Cc1ccccc1Nc1c(Cl)cccc1Cl"
13027

# credit: paper PMC12481576
